B1: Osa-1-4 twister ribozyme (parent)
chain: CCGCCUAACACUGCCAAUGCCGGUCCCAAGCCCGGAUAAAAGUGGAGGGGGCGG

Variants of: B1
procedure text: self-cleavage, relative activity (ratio to wild type); higher = more cleavage; co-transcriptional
# class assignment by measured self-cleavage: low band = under 0.05, middle band = from 0.05 up to 0.1, high band = 0.1 and over

Below, 10 variants whose answers are already recorded.
>  <sequence entry>
CCGCCUACCACUGCCACUGCCGGUCCCAAGCCCGGAUAAAAGUGGAGGGGGCGG [A17C A8C]

>  <group label>
middle band

$$$$
>  <sequence entry>
CCGCCUAACACUGCCAAUGCCGGUCCCAAUCCCGGAGAAAAGUGGAGGGGGCGG [G30U U37G]

>  <group label>
low band

$$$$
>  <sequence entry>
CCGCCUAACACUGCCAAUGCCGGUCCCAAGCCCGGAUAACAAUGGAGGGGGCGG [A40C G42A]

>  <group label>
middle band

$$$$
>  <sequence entry>
CCGCCUAACACUGCCAAUGCCUGUACCAAGCCCGGAUAAAAGUGGAGGGGGCGG [C25A G22U]

>  <group label>
middle band

$$$$
>  <sequence entry>
CCGCCUAACACUGCCAAUGCCGGUCCCAAGCCCGGAUAUAAGUGGAGGAGGCGG [A39U G49A]

>  <group label>
high band

$$$$
>  <sequence entry>
CCGCCUAACACUGCCAAUGCCGGUCCCCAGCCCGGAUGAAAGUGGAGGGGGCGG [A28C A38G]

>  <group label>
high band

$$$$
>  <sequence entry>
CCGCCUAAAACUGCCAAUGCCGGGCCCAAGCCCGGAUAAAAGUGGAGGGGGCGG [C9A U24G]

>  <group label>
middle band

$$$$
>  <sequence entry>
CCGCCUAACACUGCCAAUUCCGGUCCCAAGCCCGGAUAAAAGUGGAGGGUGCGG [G19U G50U]

>  <group label>
high band

$$$$
>  <sequence entry>
CCGCCUAACAUUGCCAAUGACGGUCCCAAGCCCGGAUAAAAGUGGAGGGGGCGG [C11U C20A]

>  <group label>
high band

$$$$
>  <sequence entry>
CCGCCUAACAUUGCCAAUGCCGGUCCCAAUCCCGGAUAAAAGUGGAGGGGGCGG [C11U G30U]

>  <group label>
low band

$$$$

Ask: # bin label for CCGCCUAACACUGCCAUUGCCGGUCCCAAGGCCGGAUAAAAGUGGAGGGGGCGG [A17U C31G]
Result: high band

Ask: # bin label for CCGCCUAACACUGCCAAUGCCGGUCCCAAGCACGGAUAAAAGUGGAUGGGGCGG [C32A G47U]
Result: low band

Ask: # bin label for CCGCCUAACACUGCCAAUGCCGGUCCCAAGCCCGGAUAAAAGUGGACGGGGCUG [G47C G53U]
Result: middle band

Ask: # bin label for CCGCCUAACACUGCCAAUGCCGGUCCCAAGCCCGGAUAAAAGUGGAGGCGGCCG [G49C G53C]
Result: low band

Ask: # bin label for CCGCCUAACACUGGCAAUGCCGGUCCCAAGCCCGGAUAAAAGUGGACGGGGCGG [C14G G47C]
Result: low band

Ask: # bin label for CCGCCUAACACUGCCAAUGCCGGUCCCAAGCCCGGAUAAAAGUGUAGAGGGCGG [G45U G48A]
Result: low band
